Every entry's value here was drawn from ChEMBL document CHEMBL3877293.

- assay_remarks: Induction of apoptosis in human NB-1 cells assessed as live cells at 5 uM after 72 hrs by Annexin-V FITC/propidium iodide staining based flow cytometry (reference value: 93.3%)
- Type: cell-based, NB1
- protocol_conditions: read-out: Activity
test_readout: viability at 72 h, 5 µM (%)
Provide the reading as a plain figure in %.

## Input Requested read-out: viability at 72 h, 5 µM. Entry: Cc1[nH]c2c(c1-c1nnc(-c3ccccc3)o1)Cc1ccccc1-2
## Output 86.6

---

- assay_remarks: Antiproliferative activity against human HeLa cells after 72 hrs by XTT assay
- Format: functional, cell-based
pIC50: −log10 of the molar value.
Exercise: state measured pIC50 for each of the compounds provided.

## Input Requested read-out: pIC50. Entry: Cc1ccc(Cc2nnc(-c3c[nH]c4c3Cc3ccccc3-4)o2)cc1
## Output < 5.00

## Input Requested read-out: pIC50. Entry: Cc1[nH]c2c(c1-c1nnc(-c3ccccc3)o1)Cc1cc(Br)ccc1-2
## Output 6.29

## Input Requested read-out: pIC50. Entry: c1ccc(Cc2nnc(-c3c[nH]c4c3Cc3ccccc3-4)o2)cc1
## Output < 5.00

## Input Requested read-out: pIC50. Entry: Cn1nc(-c2nnc(-c3ccccc3)o2)c2c1-c1ccccc1C2
## Output < 5.00

## Input Requested read-out: pIC50. Entry: Clc1cccc(-c2nnc(-c3c[nH]c4c3Cc3ccccc3-4)o2)c1
## Output < 5.00

## Input Requested read-out: pIC50. Entry: Clc1ccc(Cc2nnc(-c3c[nH]c4c3Cc3ccccc3-4)o2)cc1
## Output < 5.00

## Input Requested read-out: pIC50. Entry: COc1ccc2c(c1)-c1[nH]c(C)c(-c3nnc(-c4ccccc4)o3)c1C2
## Output < 5.00

## Input Requested read-out: pIC50. Entry: CC(C)(C)c1ccc(-c2nnc(-c3c[nH]c4c3Cc3ccccc3-4)o2)cc1
## Output 5.47

## Input Requested read-out: pIC50. Entry: c1ccc(-c2nnc(-c3nn(-c4ccccc4)c4c3Cc3ccccc3-4)o2)cc1
## Output < 5.00

## Input Requested read-out: pIC50. Entry: Clc1ccc(-c2nnc(-c3c[nH]c4c3Cc3ccccc3-4)o2)cc1
## Output < 5.00

## Input Requested read-out: pIC50. Entry: COc1cc(-c2nnc(-c3c[nH]c4c3Cc3ccccc3-4)o2)cc(OC)c1OC
## Output < 5.00

## Input Requested read-out: pIC50. Entry: Cc1[nH]c2c(c1-c1nnc(-c3ccccc3)o1)Cc1cc(Cl)ccc1-2
## Output 5.35

---

- assay_remarks: Antiproliferative activity against human NCI-H1299 cells after 72 hrs by XTT assay
- Assay type: functional, cell-based
- protocol_conditions: NCI-H1299, 72 h
test_readout: IC50 (nM)
Provide the reading as a plain figure in nM.

## Input Requested read-out: IC50. Entry: Cc1[nH]c2c(c1-c1nnc(-c3ccccc3)o1)Cc1ccccc1-2
## Output 120

---

- assay_remarks: Antiproliferative activity against human NB-1 cells after 72 hrs by XTT assay
- Format: cell-based
- protocol_conditions: NB1, 72 h
test_readout: IC50
# do not omit the unit; it follows the number

## Input Requested read-out: IC50. Entry: Cc1[nH]c2c(c1-c1nnc(-c3ccccc3)o1)Cc1ccccc1-2
## Output 1.3 µM
